assay: chemical genetic growth profiling, strain panel (AID 1159580);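 further: tested at 20 µM; growth read once vehicle control cultures reached saturation at 30 °C; 1 = growth at the plate median or of vehicle wells; lower values mean less growth of the strain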; conditions: S. cerevisiae deletion strains, growth OD, locus YLL026W
In all, about 5,500 compounds went through this assay and about 2,000 (36%) were called active. Not shown: some 18% with an inconclusive outcome. No stated cut-off is given here; in the data, active means normalized growth mostly below about 0.91 (no sharp cut-off); inconclusive means no clear call, values can overlap the other calls; inactive means mostly above about 0.92. The list shows a part of the results.
Hi! Could you answer with just one of these? class 1 for active, class 0 for inactive

Sample answers from the record:
[
  {
    "Molecule": "CS(=O)(=O)OCCCCOS(C)(=O)=O",
    "Class Name": "class 0"
  },
  {
    "Molecule": "CN(C)CCCO[C@H]1[C@@H](C(O)CO)OC2OC(C)(C)O[C@@H]21 (stereo partly specified)",
    "Class Name": "class 0"
  },
  {
    "Molecule": "O=C1N=C(O)CN1/N=C\\c1ccc(-c2ccc([N+](=O)[O-])cc2)o1",
    "Class Name": "class 0"
  },
  {
    "Molecule": "Nc1nc2ncc(CNc3ccc(C(=O)N[C@@H](CCC(=O)O)C(=O)O)cc3)nc2c(=O)[nH]1",
    "Class Name": "class 0"
  },
  {
    "Molecule": "CC1=C(/C=C/C(C)=C/C=C/C(C)=C/C(=O)O)C(C)(C)CCC1",
    "Class Name": "class 0"
  },
  {
    "Molecule": "O=C1CN(/N=C\\c2ccc([N+](=O)[O-])o2)C(=O)N1",
    "Class Name": "class 0"
  }
]

Query: Which outcome was assigned to `COc1ccc(/C=C/c2cc(O)cc(O)c2)cc1` in this test?
Response: class 0

Query: Which outcome was assigned to Nc1nc(N)c2nc(CNc3ccc(C(=O)NC(CCC(=O)O)C(=O)O)cc3)cnc2n1 (stereo unspecified) in this test?
Response: class 0

Query: Which outcome was assigned to Nc1nc2c(c(=O)[nH]1)N(C=O)C(CNc1ccc(C(=O)N[C@@H](CCC(=O)O)C(=O)O)cc1)CN2 (stereo partly specified) in this test?
Response: class 0

Query: Which outcome was assigned to `COC(=O)[C@H]1[C@H]2C[C@@H]3c4[nH]c5cc(OC)ccc5c4CCN3C[C@H]2C[C@@H](OC(=O)c2cc(OC)c(OC)c(OC)c2)[C@@H]1OC` in this test?
Response: class 0

Query: Which outcome was assigned to OC1CCCCC1N1CCC(c2ccccc2)CC1 (stereo unspecified) in this test?
Response: class 0

Query: Which outcome was assigned to `NCCCCN=C(N)N` in this test?
Response: class 0

Query: Which outcome was assigned to `CCOC(N)=O` in this test?
Response: class 0

Query: Which outcome was assigned to C#C[C@]1(O)CCC2C3CCc4cc(OC)ccc4C3CC[C@@]21C (stereo partly specified) in this test?
Response: class 0

Query: Which outcome was assigned to `O=C(O)P(=O)(O)O` in this test?
Response: class 0
